System name: hTLR9 (Homo sapiens)
Sequence (Q9NR96 26-1032): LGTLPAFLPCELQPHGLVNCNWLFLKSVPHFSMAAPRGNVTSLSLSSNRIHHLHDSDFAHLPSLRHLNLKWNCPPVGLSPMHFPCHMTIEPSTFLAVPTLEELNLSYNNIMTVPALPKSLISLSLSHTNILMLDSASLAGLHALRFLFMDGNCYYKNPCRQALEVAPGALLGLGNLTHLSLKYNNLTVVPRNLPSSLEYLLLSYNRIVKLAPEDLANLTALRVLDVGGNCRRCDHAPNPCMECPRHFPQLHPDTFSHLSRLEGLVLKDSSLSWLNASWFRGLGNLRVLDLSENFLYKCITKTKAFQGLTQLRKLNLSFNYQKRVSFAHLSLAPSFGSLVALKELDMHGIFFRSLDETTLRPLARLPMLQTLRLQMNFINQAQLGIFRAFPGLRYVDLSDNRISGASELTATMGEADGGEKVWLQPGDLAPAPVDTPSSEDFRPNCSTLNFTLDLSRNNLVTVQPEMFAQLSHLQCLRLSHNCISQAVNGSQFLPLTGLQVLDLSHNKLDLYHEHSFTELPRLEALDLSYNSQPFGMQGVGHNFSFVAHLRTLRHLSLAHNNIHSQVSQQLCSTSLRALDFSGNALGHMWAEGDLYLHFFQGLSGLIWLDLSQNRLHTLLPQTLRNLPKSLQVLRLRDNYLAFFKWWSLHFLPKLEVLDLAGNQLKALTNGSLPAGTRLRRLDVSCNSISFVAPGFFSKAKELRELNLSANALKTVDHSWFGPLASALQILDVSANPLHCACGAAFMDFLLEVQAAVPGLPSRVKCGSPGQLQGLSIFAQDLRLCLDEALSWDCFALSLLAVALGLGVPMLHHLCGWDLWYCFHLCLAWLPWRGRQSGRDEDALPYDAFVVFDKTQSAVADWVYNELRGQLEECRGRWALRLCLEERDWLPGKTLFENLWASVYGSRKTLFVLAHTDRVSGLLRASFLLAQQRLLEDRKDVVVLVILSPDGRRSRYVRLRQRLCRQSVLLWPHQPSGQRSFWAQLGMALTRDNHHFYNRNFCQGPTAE
Run description: HEK293-Blue-hTLR-9 cells assay (SEAP reporter, ODN2006 stimulation)
Assay type: cell-based
Set-up: host or cells: HEK293 (HEK-Blue)
Protocol conditions: HEK293-Blue-hTLR9 cells, ODN2006, 20 hrs; read-out: HEK/hTLR9 IC50
Procedure: A stable HEK293-Blue-hTLR-9 cell line was purchased from InvivoGen (Cat.#: hkb-htlr9, San Diego, California, USA). These cells were originally designed for studying the stimulation of human TLR9 by monitoring the activation of NF-κB. […] The cell culture supernatant SEAP reporter activity was determined using QUANTI-Blue™ kit (Cat.#: rep-qb 1, Invivogen, San Diego, California, USA) at a wavelength of 640 nm, a detection medium that turns purple or blue in the presence of alkaline phosphatase. […]
Entries and their pIC50
When answering, recall that pIC50 equals minus log10 of the concentration in mol/L, and write that number alone.

Answered examples (3):
Bench note, hTLR9 (Homo sapiens): entry [2H]c1nc2c(C#N)ccc(N3C[C@H](CN4CCN(c5cc6c(cn5)[C@@H](C)NCC6)CC4)O[C@H](C)C3)c2nc1[2H] (single isomer, unassigned) [Example 95] , its pIC50 = 6.99

I looked up C[C@@H]1CN(c2ccc(C#N)c3nccnc23)C[C@H](CN2CCN(c3cc4c(cn3)CCN[C@@H]4C)CC2)O1 (single isomer, unassigned) [Example 87] and its pIC50 for hTLR9 (Homo sapiens) was 7.01

Record for C[C@@H]1CN(c2ccc(C#N)c3ncccc23)C[C@H](CN2CCN(c3ccc4c(c3)CN(CCO)C4)CC2)O1 [Example 16] under target or system hTLR9 (Homo sapiens): pIC50 reported as 7.04

More entries:
Reported hTLR9 (Homo sapiens) pIC50 for item C[C@@H]1CN(c2ccc(C#N)c3ncccc23)C[C@H](CN2CCN(c3ccc4c(c3)CNCC4)CC2)O1 [Example 9] was 7.11

Reported pIC50 (hTLR9 (Homo sapiens)) for entry C[C@@H]1CN(c2ccc(C#N)c3ncccc23)C[C@H](CN2CCN(c3cc4c(cn3)CCN[C@@H]4C)CC2)O1 (single isomer, unassigned) [Example 74] is 7.05

###

System name: hTLR7 (Homo sapiens, UniProt Q9NYK1)
Sequence (Q9NYK1 27-1049): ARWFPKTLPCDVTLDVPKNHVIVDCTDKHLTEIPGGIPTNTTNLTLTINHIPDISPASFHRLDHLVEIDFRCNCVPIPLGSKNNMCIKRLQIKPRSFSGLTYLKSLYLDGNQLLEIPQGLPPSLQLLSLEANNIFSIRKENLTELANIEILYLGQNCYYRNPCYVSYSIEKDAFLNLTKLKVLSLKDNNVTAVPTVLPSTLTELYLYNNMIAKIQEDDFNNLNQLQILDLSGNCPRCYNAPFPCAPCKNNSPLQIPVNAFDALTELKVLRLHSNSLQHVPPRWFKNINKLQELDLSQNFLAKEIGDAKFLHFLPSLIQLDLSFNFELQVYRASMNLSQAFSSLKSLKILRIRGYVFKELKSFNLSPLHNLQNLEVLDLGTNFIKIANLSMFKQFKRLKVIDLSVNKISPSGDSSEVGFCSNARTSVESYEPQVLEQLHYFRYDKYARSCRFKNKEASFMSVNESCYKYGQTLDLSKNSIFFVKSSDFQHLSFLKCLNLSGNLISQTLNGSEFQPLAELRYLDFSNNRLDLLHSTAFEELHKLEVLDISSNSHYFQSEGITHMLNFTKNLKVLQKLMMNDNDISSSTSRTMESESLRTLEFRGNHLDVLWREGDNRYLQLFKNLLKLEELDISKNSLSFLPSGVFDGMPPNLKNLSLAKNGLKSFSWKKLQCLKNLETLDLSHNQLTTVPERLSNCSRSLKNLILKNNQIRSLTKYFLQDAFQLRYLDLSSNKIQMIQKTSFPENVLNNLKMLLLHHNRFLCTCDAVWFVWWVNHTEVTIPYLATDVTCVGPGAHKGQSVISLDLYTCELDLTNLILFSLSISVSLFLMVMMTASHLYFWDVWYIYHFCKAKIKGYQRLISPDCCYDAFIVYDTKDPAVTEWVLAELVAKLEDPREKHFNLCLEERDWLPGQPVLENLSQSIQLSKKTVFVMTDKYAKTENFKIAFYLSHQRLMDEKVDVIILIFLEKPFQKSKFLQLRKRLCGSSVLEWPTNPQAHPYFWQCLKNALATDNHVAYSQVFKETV
Run description: HEK293-Blue-hTLR-7 cells assay (SEAP reporter, R848 stimulation)
Type: cell-based
Set-up: host or cells: HEK293 (HEK-Blue)
Protocol conditions: HEK293-Blue-hTLR7 cells, R848, 20 hrs; read-out: HEK/hTLR7 IC50
# note: exactly 20 nM is not below, so it is criterion not met; use criterion met for IC50 strictly under it

The examples below pair each entry with its known result.
Please indicate whether the reported IC50 of C[C@@H]1CN(c2ccc(C#N)c3ncccc23)C[C@H](CN2CCN(c3cnc4c(c3)CN[C@H]4C)CC2)O1 (single isomer, unassigned) [Example 67] is strictly below 20 nM.
criterion met

Consider C[C@@H]1CN(c2ccc(C#N)c3ncccc23)C[C@H](CNC2CN(c3cnc4c(c3)CNC4)C2)O1 [Example 43] . Does its IC50 lie strictly below 20 nM?
criterion not met

Hello, is IC50 of the following compound strictly smaller than 20 nM? C[C@@H]1CN(c2ccc(C#N)c3nccnc23)C[C@H](CN2CCN(c3cnc4c(c3)CNC4)CC2)O1 [Example 25]
criterion met

Please let me know if [2H]c1ccc2c(N3C[C@H](CN4CCN(c5ccc6c(n5)CN[C@H]6C)CC4)O[C@H](C)C3)ccc(C#N)c2n1 (single isomer, unassigned) [Example 99] shows IC50 below 20 nM.
criterion met

Take the compound C[C@@H]1Cc2cc(N3CCN(C[C@H]4CN(c5ccc(C#N)c6ncccc56)C[C@@H](C)O4)CC3)ncc2CN1 (single isomer, unassigned) [Example 70] and say whether its IC50 is less than 20 nM.
criterion not met

---
Is IC50 of C[C@@H]1CN(c2ccc(C#N)c3ncccc23)C[C@H](CN2CCN(c3ccc4c(c3)CNC4)CC2)O1 [Example 7] strictly below 20 nM?
criterion not met
